experiment: yeast display, Sf9 membrane polyspecificity reagent, FACS + sequencing; frameworks hold sequencing errors
Measure name: polyreactivity (PSR sort gate)

Take a look at these entries with their results.
>  <Sequence string>
QVQLVESGGGIVQAGGSLRLICAASGFTFWDYAMGWHRQAPGKERELVAAISWSGGSTYYADSVKGRFTISRDNAKNTVYLQMNSLKPEDTAVYYCNAVHYSRYVHPGHSMYYWGQGTQVTVSS

>  <polyreactivity (PSR sort gate)>
low polyreactivity

$$$$
>  <Sequence string>
QVQLVESGGVLVQAGGSLRLSCAASGSIFSGYSMGWYRQAPGKERELVAAITWNGGSTYYADSVKGRFTISRDNAKNTVYLQMNILKPEDTAVYYCAAERAARFNYWGQGTQVTVSS

>  <polyreactivity (PSR sort gate)>
high polyreactivity

$$$$
>  <Sequence string>
QVQLVESGGGLLQAGGSLRLSCAASGITFLGYAMGWYRQATWKERELVAAISISGDTYYADSEKGRFTISRDNAKNTVYLQMNSLKPEDTAVYYCAAVQSYAGFEYGYWGQGTQVTVSS

>  <polyreactivity (PSR sort gate)>
high polyreactivity

$$$$
>  <Sequence string>
QVQLVESGGGLVQAGGSLRLSCAASGRTFGGNTMGWYRQAPGKERELVAAISFSGGSTYYADSVKGRFTISRDNAKNTVYLQMNSLKPEDTAVYYCAREDYSHSFLTYDYWGQGTQVTVSS

>  <polyreactivity (PSR sort gate)>
low polyreactivity

$$$$

Could you now consider this next sequence?
Looking for the measured polyreactivity (PSR sort gate) of `QVHLVESGGGLDQAGGSLRLRCAASGRIFRHYAMGWYRQAPGTERELVAAYRWSCGSTYYADSEKGRFTISRDNAKNTVYLQMNSLKPEDNAVYYCATRDAVGHRPSGPYQLYDYWGQGTQVTVSS` , can you help?
low polyreactivity

* * *

experiment: yeast display, Sf9 membrane polyspecificity reagent, FACS + sequencing; frameworks hold sequencing errors
Measure name: polyreactivity (PSR sort gate)

Take a look at these entries with their results.
>  <Sequence string>
QVQLVESGGGLVQAGGSLRLSCAASGSIFGSYAMGWYRQAPGKERELVAAISGSGGRTYYADSVKGRFTISRDNAKNTVYFQMNSLKPEVTAVYYCAAAYPRVTYKYGYYWGLGTQVTVSS

>  <polyreactivity (PSR sort gate)>
high polyreactivity

$$$$
>  <Sequence string>
QVQLVESGGGLVQAGGSLRLSCAASGITFTVNAMGWYRQAPGKERELVAAISNDGSTYYADSVKGRFTISRDNAKNTVYLQMNSLKPEDTAVYYCSADTWDDFGPYGYDYWGQGTQVTVSS

>  <polyreactivity (PSR sort gate)>
low polyreactivity

$$$$
>  <Sequence string>
QVQLVESGGGLVQAGGCLRLSCAASGSIFDYYTMGWYREAPGNEREFVAGISDSGGSTTYADSVKGRFTISRDNAKNTVYLQMNSLKPEDTAVYYCNAEYVGWFYKYDYWGQGTQVTVSS

>  <polyreactivity (PSR sort gate)>
high polyreactivity

$$$$
>  <Sequence string>
QVQLVESGGGLVQAGGSLRLSCAASGRTFIVYAMGWYRQAPGKERELVARISSGSRTSYADSVKGRFTISRDNAKNTVYLQMNSLKPEDTAVYYCAKSRVIKYEFDYWGQGTQVTVSS

>  <polyreactivity (PSR sort gate)>
low polyreactivity

$$$$

Could you now consider this next sequence?
Looking for the measured polyreactivity (PSR sort gate) of `QVQLVESGGGLVQAGGSLRLSCAASGSTITFYTMGWYRQEPGKEREFVADIDDSGGITYYADSVKGRFTISRDNAKNTVYLQMNSLKPEDTAVYSCAAEYWTACYWICVDYWGQGTQVTVSS` , can you help?
high polyreactivity

* * *

assay: yeast display, Sf9 membrane polyspecificity reagent, FACS + sequencing; frameworks hold sequencing errors
Measure name: polyreactivity (PSR sort gate)

>  <Sequence string>
QVQLEESGGGLVQAGGSLRLSCAASGSNAMGWYRQAPGKERELVAVITSRGGSTYYADSVKGRFTISRDNAKNTVYLQMNSLKPEDTAVYYCAKAWYVRGTWSVHVRYGYWGQGTQVTVSS

>  <polyreactivity (PSR sort gate)>
high polyreactivity

$$$$
>  <Sequence string>
QVKLLESGGGLVQSGGSLRLSCAAYAIIFRWYTMGGYRQAPGKERQLVAAISTSTGSTYYADSVKGRFTISRDNAKNTVYLQMNSLKPEDTAVYYCAADYAYWNYESYYWGQGTQVTVSS

>  <polyreactivity (PSR sort gate)>
high polyreactivity

$$$$
>  <Sequence string>
QVQLVESGGGLVQAGGSLRLSCAPSGRIFRYYAMGWYRQAPGKERELVATIRSGGSTNYADSVKGRFTISRDNEKNTVYLQMNSLKPEDTAVYYCAATGGILSTYDYWGQVTQVTVSS

>  <polyreactivity (PSR sort gate)>
high polyreactivity

$$$$
>  <Sequence string>
QVQLVESGAGLVQAGGSLRLSCAASGFIFVKYVMGWYRQAPGKERELDATITNGVSTNYADSVKGRFTISRDNAKNTVYLQMNSLKPEDTAVYYCNTGSTAWYFSGDYWGQGTQVTVSS

>  <polyreactivity (PSR sort gate)>
low polyreactivity

$$$$

Could you now consider this next sequence?
Looking for the measured polyreactivity (PSR sort gate) of `QVQLVESGGGLVQAGCSLRLSSAASGFTFGYYGMGWYRQAPGKERELVAAISQSSTDTYYADSVKGRFTISRDNAKNTVYLQMNSLKPEDTPVYYCAAHPTDSEYDDYEYWGQGTQVTVSS` , can you help?
low polyreactivity

* * *

test: yeast display, Sf9 membrane polyspecificity reagent, FACS + sequencing; frameworks hold sequencing errors
Measure name: polyreactivity (PSR sort gate)

>  <Sequence string>
QVELQVSGGGLVRAGGSLRLSCAASGNIFDADIMGWYRQAPGKERELVASITGGGSTSYAESAKGRFTISRDNAKNAVYLQMNSLKPEDTAVYYCAKDGYVYGDWYTYAYDYWGQGTQVTVSS

>  <polyreactivity (PSR sort gate)>
low polyreactivity

$$$$
>  <Sequence string>
QDQLVESGGGLVQAGGSLRLSCAASGFTFQYYAMGWYRQAPGKERELVAAISRRGGRTDYADSVKGRFTISRDNAKNTVYLQINSLKPEDTEVYYCARDPGAFEYSGQGTQVTVSS

>  <polyreactivity (PSR sort gate)>
high polyreactivity

$$$$
>  <Sequence string>
QVQLVESGGGLVQAGGSLRLSCAASGSIFLGNSMGWYRQAPGKERELVAAISSITGRTYYADSVKGRFTISRDNAKNTVYLQMNSLKPEDTAVYYCNKVKRSFIVNTDDYWGQGTQVTVSS

>  <polyreactivity (PSR sort gate)>
high polyreactivity

$$$$
>  <Sequence string>
QVQLVESGGGLVQAGGSLRLICAASGRTFALYAMGWYRQAPGKEREVVASISWRGGSTYYADSVKGRFTISRDTAKNTVYLQMNSLKPEDTAVDYCAADTWSYGPLNYRLEYWGQGTQVTVSS

>  <polyreactivity (PSR sort gate)>
low polyreactivity

$$$$

Looking for the measured polyreactivity (PSR sort gate) of `QVQLVESGGGLVQAGGSLRLSCAASGRIFKKNAMGWYRQAPGKERELVADINWTGGSTYYADSVKGRFTISRDYAKNTVDLQMNSLKPEDTAVYYCAVGVYPSYRGTTFSTRRDYWGQGTQVTVSS` , can you help?
low polyreactivity

* * *

test: yeast display, Sf9 membrane polyspecificity reagent, FACS + sequencing; frameworks hold sequencing errors
Measure name: polyreactivity (PSR sort gate)

>  <Sequence string>
QVQLVESGGGLVQAGGSLRLSCAASGFTLAGYDMGWYRQAPGKEREFVATISTYADSVKGRFTISRDNAKNTVYLQMNSQKPEDSAVYYCAAGRYLWHFTFDYWGQGTQVTVSS

>  <Measure name>
polyreactivity (PSR sort gate)

>  <Measured>
low polyreactivity

$$$$
>  <Sequence string>
QVQLVESGGGLVQAGGSLRLSCAASGTIFSVNAMGWYRQRLGKKGSWWPLFLTLLPSTYYADSVKARFTISRDNAKNTVYLQMNSLKPEDTAVYYCNAVYSVDFPTPTSDGDPDGFDYWGQGTQVTVSS

>  <Measure name>
polyreactivity (PSR sort gate)

>  <Measured>
low polyreactivity

$$$$
>  <Sequence string>
QVQLVESGGGLVQAGGSLRLSCAASGRIFHFNTMGWYRQAPGKERELVAAITSSGGSTNYADSVKGRFTISRDNAKNTVYLQMNSLKPEDTAVYYCNADTGAADYFDFDYWGQGTQVTVSS

>  <Measure name>
polyreactivity (PSR sort gate)

>  <Measured>
low polyreactivity

$$$$

* * *

assay: yeast display, Sf9 membrane polyspecificity reagent, FACS + sequencing; frameworks hold sequencing errors
Measure name: polyreactivity (PSR sort gate)

Take a look at these entries with their results.
>  <Sequence string>
QVQLVESGGGLVKAVGSLRLSCAPSGRISGVYAMGWYRQAPGKERELVAAISWSGGPTYYADSVKGRFTISRDNAKNTFYLEMTSLKPEDTAVYYCNGDTGFRSYLRVYWGQGTQVTVSS

>  <Measure name>
polyreactivity (PSR sort gate)

>  <Measured>
low polyreactivity

$$$$
>  <Sequence string>
QVQLVESGGGLVQAGGSLRLSCAASGSIYGYVKGWYRPAPGKERELVAAIRRSGGSTYYADSVKGRFTISRDNAKNTVYLQMNSLKPEDTAVYYCAARTYGTDRYYYWGQGTQVTVSS

>  <Measure name>
polyreactivity (PSR sort gate)

>  <Measured>
high polyreactivity

$$$$
>  <Sequence string>
QFQLVESGGGLVQAGGSLRLSCAASGSIFVYNVMGWYRQAPGKERELVAAITYSGGGTYYADSVKGRFTISRDTAKNTVYLQMNSLKPEDTAVYYCAAAYPSVAYSYRYDYWGQGTQVTVSS

>  <Measure name>
polyreactivity (PSR sort gate)

>  <Measured>
high polyreactivity

$$$$
>  <Sequence string>
QVQLVESGGGLVQAGGSLRLSCAASGSIRSYAMGWYRQAPGKERELVAAITRSGGSTYYADSVKGRFTLSRDNAKNSVYLQMNSLKPEDTAVYYCAARYTYSYPYYRYNYWGQGTQVTVSS

>  <Measure name>
polyreactivity (PSR sort gate)

>  <Measured>
high polyreactivity

$$$$
>  <Sequence string>
QVQLVESGGGLVQAGASLRLSCAASGSIFGVNAMGWYRQAPGKERELVAAISVSGGRTYYADSVKGRFTISRDNAKNTVYLLMNSLKPEDTAVYYCAATTYIWPYDYWGQGTQVTVSS

>  <Measure name>
polyreactivity (PSR sort gate)

>  <Measured>
low polyreactivity

$$$$
>  <Sequence string>
QVQLVESGGGLVQAGGSLRLSCAASGSIVSYYAMGWYRKAPGKERELVAAISKSGGRTYYADSVKGRFTISRDNAKNTVYLQMNSLKPEDTAVYYCAAPATYKYEYWGQGTQVTVSS

>  <Measure name>
polyreactivity (PSR sort gate)

>  <Measured>
high polyreactivity

$$$$

Looking for the measured polyreactivity (PSR sort gate) of `QVQLVESGGGLVQAGGSLRLSCAATVSTFWNYAMGWYRQAPGKERELVAAITRGSSTNYADSVKGRFRISRDNAKNTVYLQMNSLKPEVTAVYYCAKRVGRWSAFYYWGQGTQVTVSS` , can you help?
high polyreactivity

Next up: `QVQLVESGGGLVQAGGSLRLSCAASGSTFLNYVMGWYRQAPGKERELVATINSGDSTTYADSVKGRFTISRDNAKNTVYLQMNSLKPEDTAVYYCNADPYYYSTYWSVKYDYWGQGTQVTVSS`
low polyreactivity

Next up: `QVQLVESGGGLVQAGGSLRLSCAASGRTFPYYAMGWYRQAPGKERELVAAIRGTAGNTYYADSVKGRFTISRDNAKNTVYLQMNSLKPEDTAVYYCAKGRPYWSPLTGYNYWGQGTQVTVSS`
low polyreactivity

Next up: `QVQLVESGGGLVQAGGSLRLSCAASGRIFYYNAMGWYRPAPGKERELVAAITYIGGNTHYADSVKGRFTISRDNAKYTVYLQMNSLKPEDTAVYYCARGTVLGFYYEYGYWGQGTQVTVSS`
low polyreactivity

Next up: `QVQLVESGGGLVQAGGSLSLSCAASGIIFGLYTMGWYRQAPGKERELVAAISDSGGRTYYADSVKGRFTISRDNAKNTVYLQMNSLKPEETAVYYCAAEFWYVWEYNYWGQCTQVTVSS`
high polyreactivity
